Values compiled from patent US20100272750A1.

# target desc: HLA A0101 (human)
# measurement notes: 125I-probe competition, purified HLA
pIC50: −log10 of the molar value.
Here the recorded pIC50 is given for each entry.
readout: pIC50

>  <binder>
VMDDSEIAY (modifications not checked) [HPV31.E1.349]

>  <measured>
7.74

$$$$
>  <binder>
ELDPVDLLCY (modifications not checked) [HPV45.E7.20]

>  <measured>
7.59

$$$$
>  <binder>
LSSALEIPY (modifications not checked) [HPV31.E6.15]

>  <measured>
7.46

$$$$
>  <binder>
ATCVSHRGLY (modifications not checked) [HPV18.E2.154]

>  <measured>
6.38

$$$$
>  <binder>
STDLRDHIDY (modifications not checked) [HPV16.E2.23]

>  <measured>
6.95

$$$$
>  <binder>
QVDYYGLYY (modifications not checked) [HPV16.E2.151]

>  <measured>
8.57

$$$$
>  <binder>
GTGCNGWFY (modifications not checked) [HPV18/31.E1.11]

>  <measured>
6.87

$$$$
>  <binder>
LQDKILDHY (modifications not checked) [HPV45.E2.17]

>  <measured>
7.49

$$$$
